Reference source for all entries: the supplement of paper PMC10126150

system: ATP; assay: switch fluorescence ratio, 500 uM ATP over buffer (Cy3 cluster intensity, sum of 5 cycles each) (fold (ratio)); higher = stronger signal-on switching upon ATP binding; sequences stand for … in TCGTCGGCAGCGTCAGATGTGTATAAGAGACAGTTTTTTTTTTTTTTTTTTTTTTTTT…TC; conditions: aptamer strand: ATP DNA aptamer (quencher-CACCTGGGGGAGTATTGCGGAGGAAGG + anchor), 100 nM annealed; ATP concentration: 500 uM;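 also: ATP exposure 15 min at 22 °C before imaging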
PARAMETER_MEASURED: switch fluorescence ratio

The examples below pair each entry with its known result.
{"MACROMOLECULE_SEQUENCE": "ATTTTTTGTT", "switch fluorescence ratio": 0.976}
{"MACROMOLECULE_SEQUENCE": "AGCTGAGGAG", "switch fluorescence ratio": 1.01}
{"MACROMOLECULE_SEQUENCE": "GAGAGTATGG", "switch fluorescence ratio": 0.982}
{"MACROMOLECULE_SEQUENCE": "AACAGTTTTA", "switch fluorescence ratio": 0.972}
{"MACROMOLECULE_SEQUENCE": "TATAATTTCG", "switch fluorescence ratio": 1}

For each of the items listed, what is its switch fluorescence ratio?
1. GTATTTACAT
2. GACATTAAGG
3. TTAAGGCTAT
4. AATATAGGGG
5. TTTTGTCTTT

Result string:
1: 0.986; 2: 1.01; 3: 1.01; 4: 0.996; 5: 1

List switch fluorescence ratio for every entry below, keeping the order given.
1. GTCACAGGCT
2. GGTTCAGGGT
3. CGGCTGTGTG
4. GGTTGGGGGC
5. TGTCGTGTAG

Result string:
[1.02, 1.02, 0.974, 0.991, 1.01]

* * *

system: ATP; assay: switch fluorescence ratio, 500 uM ATP over buffer (Cy3 cluster intensity, sum of 5 cycles each) (fold (ratio)); higher = stronger signal-on switching upon ATP binding; sequences stand for … in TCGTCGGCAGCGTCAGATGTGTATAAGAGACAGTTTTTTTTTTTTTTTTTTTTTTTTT…TC; details: aptamer strand: ATP DNA aptamer (quencher-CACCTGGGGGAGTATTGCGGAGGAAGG + anchor), 100 nM annealed; ATP concentration: 500 uM;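 also: ATP exposure 15 min at 22 °C before imaging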
PARAMETER_MEASURED: switch fluorescence ratio
Answers are plain numbers.

Example sequences with recorded switch fluorescence ratio:
{"MACROMOLECULE_SEQUENCE": "TAGCTCGTTT", "switch fluorescence ratio": 0.995}
{"MACROMOLECULE_SEQUENCE": "TTAAATGGGG", "switch fluorescence ratio": 0.978}
{"MACROMOLECULE_SEQUENCE": "AGAAGCTAAG", "switch fluorescence ratio": 0.996}
{"MACROMOLECULE_SEQUENCE": "GGGTTTAGAG", "switch fluorescence ratio": 0.988}
{"MACROMOLECULE_SEQUENCE": "GCTTGGATAA", "switch fluorescence ratio": 1.02}
{"MACROMOLECULE_SEQUENCE": "TTTAATGAGT", "switch fluorescence ratio": 1.02}
{"MACROMOLECULE_SEQUENCE": "AGGGCAGTGG", "switch fluorescence ratio": 0.98}
{"MACROMOLECULE_SEQUENCE": "TTGAGGGTTG", "switch fluorescence ratio": 0.987}
{"MACROMOLECULE_SEQUENCE": "ACCAGTGATG", "switch fluorescence ratio": 1.01}
{"MACROMOLECULE_SEQUENCE": "CGGGGGCTT", "switch fluorescence ratio": 1}

Report switch fluorescence ratio for every entry below.
1. TAGGTTGCTT
2. GGCGGGGTCG
3. AGAAGGGGGT
4. TTGGGTTGGC
5. TGTTTTGGTG
6. GTGTTCATCG
7. TGGGGGGTCT
8. CTATCATAGT

Result string:
1. 1.02
2. 1.01
3. 1.02
4. 1.02
5. 1.01
6. 0.973
7. 1.02
8. 0.98
